The measurements presented in this section are drawn from patent US20090221680.

Reported activity values for a set of binders
# target desc: thrombin (endogenous, clotting assay in plasma or whole blood) (Homo sapiens, UniProt P00734;P00734 P00734:328-363,P00734:364-622)
# assay remarks: inhibition; ACT at 10 uM
Lab note: write values as number then unit, every time.

Study these solved cases before continuing.
binder	activity
CCTCAGGGATGGTGTGGGTGGCTGAGGTTTTTT (ssDNA) [ARC2186]	408 s
GACTACCTCAGGGATGGTGTGGGTGGCTGAGGTAGTC (ssDNA) [ARC2177]	401 s
ACTACCTCAGGGATGGTGTGGGTGGCTGAGGTAGT (ssDNA) [ARC2176]	394 s

Okay, now this binder:
Report measured activity; entry is CTACCTCAGGGATGGTGTGGGTGGCTGAGGTAG (ssDNA) [ARC2175]
392 s
